Please provide measured Emax for the entries that follow.
molecular target: SIRT1 (Homo sapiens, UniProt Q96EB6); experiment: Trp mass spectrometry assay of SIRT1 activity; format: biochemical; settings: Trp assay; percent maximum fold activation; read-out: Trp % Fold Act
Sequence (Q96EB6 whole entry): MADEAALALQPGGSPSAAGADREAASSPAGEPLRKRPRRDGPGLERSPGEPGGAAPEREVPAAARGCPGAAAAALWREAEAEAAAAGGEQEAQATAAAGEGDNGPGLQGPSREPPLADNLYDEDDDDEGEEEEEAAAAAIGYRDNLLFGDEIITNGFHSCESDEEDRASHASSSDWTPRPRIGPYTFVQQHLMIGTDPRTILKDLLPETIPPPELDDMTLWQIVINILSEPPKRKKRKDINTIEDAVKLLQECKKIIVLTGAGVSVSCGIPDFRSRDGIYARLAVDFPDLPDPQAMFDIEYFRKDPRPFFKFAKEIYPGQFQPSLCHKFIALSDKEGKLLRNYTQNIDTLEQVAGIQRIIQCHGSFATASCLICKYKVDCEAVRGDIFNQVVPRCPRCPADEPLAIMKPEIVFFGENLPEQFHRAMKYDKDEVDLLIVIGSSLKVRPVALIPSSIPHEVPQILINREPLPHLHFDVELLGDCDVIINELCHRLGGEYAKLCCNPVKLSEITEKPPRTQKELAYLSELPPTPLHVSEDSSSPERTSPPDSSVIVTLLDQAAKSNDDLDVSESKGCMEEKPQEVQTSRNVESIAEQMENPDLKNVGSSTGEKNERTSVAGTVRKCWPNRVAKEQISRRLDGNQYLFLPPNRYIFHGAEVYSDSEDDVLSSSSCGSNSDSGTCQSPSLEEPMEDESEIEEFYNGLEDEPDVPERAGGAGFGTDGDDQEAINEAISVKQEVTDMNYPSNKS

>  <compound>
Cc1c(-c2ccccc2C(F)(F)F)nn2c(C(=O)Nc3cccc(N4CCOCC4)n3)cnc2c1C

>  <Emax>
≥ 350%

$$$$

Working through the 3 compounds below one at a time, give Emax for each.
1. Cc1ccc(NC(=O)c2cnn3ccc(-c4ccccc4OC(F)(F)F)nc23)cn1
2. Cc1cc(C(=O)Nc2cnc3ccc(-c4ccccc4C(F)(F)F)nn23)nc(C)n1
3. Cc1cc(NC(=O)c2cnc3ccc(-c4ccccc4Cl)nn23)cc(C)n1

["≥ 350%", "< 350%", "< 350%"]
